Tested on: Quadruplex DNA
Assay: Binding affinity to c-myc G4 DNA 5'-TGAGGGTGGGGAGGGTGGGGAA-3' (unknown origin) assessed as association constant at equilibrium measured under dilution conditions by isothermal titration calorimetry
Format: nucleic-acid assay
Conditions: Homo sapiens
property measured: Ka (M⁻¹)

CN1CCCNC(=O)CCCC(=O)NCCCN(C)CCCN2C(=O)c3ccc4c5c(ccc(c35)C2=O)C(=O)N(CCC1)C4=O ... 1.1e+06
CN1CCCNC(=O)c2cccc(c2)C(=O)NCCCN(C)CCCN2C(=O)c3ccc4c5c(ccc(c35)C2=O)C(=O)N(CCC1)C4=O ... 2.4e+06

1 = CN1CCCNC(=O)CC(C)(C)CC(=O)NCCCN(C)CCCN2C(=O)c3ccc4c5c(ccc(c35)C2=O)C(=O)N(CCC1)C4=O
2 = CN1CCCNC(=O)CC2(CCCCC2)CC(=O)NCCCN(C)CCCN2C(=O)c3ccc4c5c(ccc(c35)C2=O)C(=O)N(CCC1)C4=O
Query: // compare: 1 vs 2 , metric Ka, want the smaller Kindly state the label of the option you pick.
Response: 1
(1: 2.6e+06 M⁻¹, 2: 6.2e+06 M⁻¹)

###

System: Quadruplex DNA
Experiment: Binding affinity to TA-core G4 DNA 5'-TAGGGTTAGGGTTAGGGTTAGGG-3' (unknown origin) assessed as change in entropy measured under dilution conditions by isothermal titration calorimetry
Type: nucleic-acid assay
Conditions: Homo sapiens
property measured: -TdeltaS (kcal/mol)

P = CN1CCCNC(=O)c2cccc(c2)C(=O)NCCCN(C)CCCN2C(=O)c3ccc4c5c(ccc(c35)C2=O)C(=O)N(CCC1)C4=O
Q = CN1CCCNC(=O)CC2(CCCCC2)CC(=O)NCCCN(C)CCCN2C(=O)c3ccc4c5c(ccc(c35)C2=O)C(=O)N(CCC1)C4=O
R = CN1CCCNC(=O)CCCC(=O)NCCCN(C)CCCN2C(=O)c3ccc4c5c(ccc(c35)C2=O)C(=O)N(CCC1)C4=O
Query: Put the above entries in order of falling -TdeltaS. Provide the ranking by listing each label in its place in the requested order.
Response: Q, P, R
(Q: 4.4 kcal/mol, P: 0.36 kcal/mol, R: -0.4 kcal/mol)

###

System: Quadruplex DNA
Experiment: Binding affinity to TA-core G4 DNA 5'-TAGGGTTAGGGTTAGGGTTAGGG-3' (unknown origin) assessed as change in enthalpy measured under dilution conditions by isothermal titration calorimetry
Type: nucleic-acid assay
Details: Homo sapiens
property measured: deltaH (kcal/mol)

Solved entries:
CN1CCCNC(=O)CC(C)(C)CC(=O)NCCCN(C)CCCN2C(=O)c3ccc4c5c(ccc(c35)C2=O)C(=O)N(CCC1)C4=O ... -11
CN1CCCNC(=O)CCCC(=O)NCCCN(C)CCCN2C(=O)c3ccc4c5c(ccc(c35)C2=O)C(=O)N(CCC1)C4=O ... -8.5

A = CN1CCCNC(=O)c2cccc(c2)C(=O)NCCCN(C)CCCN2C(=O)c3ccc4c5c(ccc(c35)C2=O)C(=O)N(CCC1)C4=O
B = CN1CCCNC(=O)CC2(CCCCC2)CC(=O)NCCCN(C)CCCN2C(=O)c3ccc4c5c(ccc(c35)C2=O)C(=O)N(CCC1)C4=O
Query: // compare: A vs B , metric deltaH, want the smaller Kindly state the label of the option you pick.
Response: B

###

Test system: Quadruplex DNA
Test: Binding affinity to TA-core G4 DNA 5'-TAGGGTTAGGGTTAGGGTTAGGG-3' (unknown origin) assessed as Gibbs free energy change measured under molecular crowding conditions by isothermal titration calorimetry
Type: nucleic-acid assay
Details: Homo sapiens
property measured: deltaG (kcal/mol)

CN1CCCNC(=O)CCCC(=O)NCCCN(C)CCCN2C(=O)c3ccc4c5c(ccc(c35)C2=O)C(=O)N(CCC1)C4=O ... -8.6
CN1CCCNC(=O)c2cccc(c2)C(=O)NCCCN(C)CCCN2C(=O)c3ccc4c5c(ccc(c35)C2=O)C(=O)N(CCC1)C4=O ... -8
CN1CCCNC(=O)CC2(CCCCC2)CC(=O)NCCCN(C)CCCN2C(=O)c3ccc4c5c(ccc(c35)C2=O)C(=O)N(CCC1)C4=O ... -7.9
CN1CCCNC(=O)CC(C)(C)CC(=O)NCCCN(C)CCCN2C(=O)c3ccc4c5c(ccc(c35)C2=O)C(=O)N(CCC1)C4=O ... -8

Ref: ChEMBL document CHEMBL4808234
